meta.source: the supplement of paper PMC11875167

test: observed amide hydrogen exchange rate constant kobs (stretched exponential fit, FD-normalized) (s^-1); higher = faster H/D exchange (less protection); settings: pH 3 (pH read); temperature: 20 °C; D2O: 88%
Can you tell me observed amide hydrogen exchange rate constant kobs for the items I'm about to list?
Just the number, please, no unit attached.

Given the substance FTQAGSEVSALLGR , what is its reported observed amide hydrogen exchange rate constant kobs? 0.00109

What value of observed amide hydrogen exchange rate constant kobs has been reported for the following substance? ILEFFGLK 0.00112

Need observed amide hydrogen exchange rate constant kobs of QLFHPEQLITGK , thanks. 0.00131

May I ask what observed amide hydrogen exchange rate constant kobs has been recorded for VIGSGCNLDSAR ? 0.00116

Please look up its observed amide hydrogen exchange rate constant kobs: VLDFEHFLPMLQTVAK 0.000855

// returns reported observed amide hydrogen exchange rate constant kobs for input SINPDEAVAYGAAVQAAILSGDK 0.000731

Suppose we examine the substance YLTVAAVFR ; what observed amide hydrogen exchange rate constant kobs value has been reported? 0.000527

Sample PAAPPAPGPGQLTLR — what was its observed amide hydrogen exchange rate constant kobs? 0.000936

Could you share which observed amide hydrogen exchange rate constant kobs value was measured for AQQELEEQTRR ? 0.00236

Which observed amide hydrogen exchange rate constant kobs value is on record for ISVVSTK ? 0.000812

observed amide hydrogen exchange rate constant kobs lookup needed for EQVANSAFVER , thanks. 0.00104

Entry under review: ALENDPDCR . Reported observed amide hydrogen exchange rate constant kobs? 0.00109

# observed amide hydrogen exchange rate constant kobs lookup, item IVEMSTSK 0.00206

Any idea what its observed amide hydrogen exchange rate constant kobs is? The substance is VFLAQK 0.00073

Dear colleague, I am looking for the recorded observed amide hydrogen exchange rate constant kobs of the following substance: WTGMIIGPPR 0.000901

Any idea what its observed amide hydrogen exchange rate constant kobs is? The substance is MTDQEAIQDLWQWR 0.000842

Query: observed amide hydrogen exchange rate constant kobs; subject: TLHPDLGTDK 0.00356

Need observed amide hydrogen exchange rate constant kobs of DAGPLLISLK , thanks. 0.000622

Form field: reported observed amide hydrogen exchange rate constant kobs of QFLFRPWDVTK 0.000828

Request the reported observed amide hydrogen exchange rate constant kobs associated with RNTTIPTK 0.00112

Look up observed amide hydrogen exchange rate constant kobs for this substance: IFVGGLNPEATEEK 0.00108

Which measured observed amide hydrogen exchange rate constant kobs value corresponds to DLPLLLFR ? 0.000629

What observed amide hydrogen exchange rate constant kobs value was documented for this substance, VEIIANDQGNR ? 0.00189

Reported observed amide hydrogen exchange rate constant kobs for RFDDAVVQSDMK : what is it? 0.00151

Record request: observed amide hydrogen exchange rate constant kobs value, item AQVARPGGDTIFGK 0.00115

What value of observed amide hydrogen exchange rate constant kobs has been recorded for this entry: NWMNSLGVNPR 0.000991

Which measured observed amide hydrogen exchange rate constant kobs value corresponds to ILTFDQLALDSPK ? 0.000724

Could you tell me which observed amide hydrogen exchange rate constant kobs is on file for ESVPEFPLSPPK ? 0.00083

State the recorded observed amide hydrogen exchange rate constant kobs for this entry: SIQFVDWCPTGFK 0.00182

Query (substance): LEEDINSSMTNSTAASRPPVTLR ; field requested: observed amide hydrogen exchange rate constant kobs 0.00139

Any idea what observed amide hydrogen exchange rate constant kobs was measured for GVVDSEDLPLNISR ? 0.0013

Could you tell me which observed amide hydrogen exchange rate constant kobs is on file for IWHHTFYNELR ? 0.00224

# query: observed amide hydrogen exchange rate constant kobs of entry FVSISDLLVPK 0.000665

Which observed amide hydrogen exchange rate constant kobs is listed for TENLLGSYFPK ? 0.00102

Give its observed amide hydrogen exchange rate constant kobs value. Item: LVIITAGAR 0.000717

Request the reported observed amide hydrogen exchange rate constant kobs associated with GSYGDLGGPIITTQVTIPK 0.000771

Looking for the measured observed amide hydrogen exchange rate constant kobs of GFGFVDFNSEEDAK , can you help? 0.00238

What measured observed amide hydrogen exchange rate constant kobs goes with DDGLFSGDPNWFPK ? 0.00189

What observed amide hydrogen exchange rate constant kobs value was documented for this substance, DVNVNFEK ? 0.00146

Look up observed amide hydrogen exchange rate constant kobs: SADTLWGIQK 0.000987

Quick one: observed amide hydrogen exchange rate constant kobs for AVTEQGHELSNEER ? 0.00324

Param item = NLPFDFTWK ; retrieve measured observed amide hydrogen exchange rate constant kobs. 0.00101

Give its observed amide hydrogen exchange rate constant kobs value. Item: GFGFVLFK 0.000656

Fill in the blank: the reported observed amide hydrogen exchange rate constant kobs of NMGGPYGGGNYGPGGSGGSGGYGGR is ____. 0.00223

Given the entry GFGFVTYATVEEVDAAMNARPHK , report its measured observed amide hydrogen exchange rate constant kobs. 0.00098

observed amide hydrogen exchange rate constant kobs lookup needed for LFVGGLK , thanks. 0.000811

What value of observed amide hydrogen exchange rate constant kobs has been reported for the following substance? AVFVDLEPTVIDEVR 0.000889

Entry under review: SSGPTSLFAVTVAPPGAR . Reported observed amide hydrogen exchange rate constant kobs? 0.000757

Field request: observed amide hydrogen exchange rate constant kobs | item: LLLPWLEAR 0.00056

Field request: observed amide hydrogen exchange rate constant kobs | item: GYFEYIEENK 0.00229

State the recorded observed amide hydrogen exchange rate constant kobs for this entry: VLEQLTGQTPVFSK 0.00081

Item GAVDGGLSIPHSTK has what recorded observed amide hydrogen exchange rate constant kobs? 0.00225

Query: observed amide hydrogen exchange rate constant kobs; subject: IWDLEGK 0.00103

Please give the measured observed amide hydrogen exchange rate constant kobs for this substance: MLVSGAGDIK 0.00135

Fill in the blank: the reported observed amide hydrogen exchange rate constant kobs of FPGQLNADLRK is ____. 0.00145

Name the recorded observed amide hydrogen exchange rate constant kobs for SGYLAGDK . 0.00168

Give its observed amide hydrogen exchange rate constant kobs value. Item: GEMMDLQHGSLFLR 0.00161

Recorded observed amide hydrogen exchange rate constant kobs of LTDCVVMRDPASK , please. 0.000824

Value lookup for observed amide hydrogen exchange rate constant kobs; key = EISLWFKPEELVDYK 0.000892

Which observed amide hydrogen exchange rate constant kobs value is on record for QIPQATASMK ? 0.00103

I'd like to know its observed amide hydrogen exchange rate constant kobs. The substance in question is DNSTMGYMMAK 0.00115

Which value of observed amide hydrogen exchange rate constant kobs has been reported for GLAPDLPEDLYHLIK in the records? 0.00112

Name the recorded observed amide hydrogen exchange rate constant kobs for ADLINNLGTIAK . 0.000815

# observed amide hydrogen exchange rate constant kobs lookup, item GNFGGSFAGSFGGAGGHAPGVAR 0.00196

Bench note: what observed amide hydrogen exchange rate constant kobs did YHTINGHNAEVR show? 0.00291

May I ask what observed amide hydrogen exchange rate constant kobs has been recorded for IRYESLTDPSK ? 0.00212

Param item = LIDDMVAQVLK ; retrieve measured observed amide hydrogen exchange rate constant kobs. 0.000612

I am curious: what observed amide hydrogen exchange rate constant kobs value has been reported for TLGILGLGR ? 0.00116

What observed amide hydrogen exchange rate constant kobs value was documented for this substance, DSTLIMQLLR ? 0.000608

Give its observed amide hydrogen exchange rate constant kobs value. Item: LNLVQR 0.000854

Data request, read-out observed amide hydrogen exchange rate constant kobs, for NLLSVAYK 0.00119

Fill blank: measured observed amide hydrogen exchange rate constant kobs of the substance ALPFWNEEIVPQIK is ____. 0.000814

Data request, read-out observed amide hydrogen exchange rate constant kobs, for AGAHLQGGAK 0.00372

Which observed amide hydrogen exchange rate constant kobs is reported for this substance? IILDLISESPIK 0.000711

Given the substance MFVGGLSWDTSK , what is its reported observed amide hydrogen exchange rate constant kobs? 0.00136

I'd like to know its observed amide hydrogen exchange rate constant kobs. The substance in question is FFEVILIDPFHK 0.000722

I'd like to know its observed amide hydrogen exchange rate constant kobs. The substance in question is RAPFDLFENK 0.00167

Reported observed amide hydrogen exchange rate constant kobs, substance AGGFLMK : ____ 0.00127

Entry EIVLADVIDNDSWR : reported observed amide hydrogen exchange rate constant kobs = ? 0.00114

For the substance GLVGEIIK , what observed amide hydrogen exchange rate constant kobs is on record? 0.000569

Which observed amide hydrogen exchange rate constant kobs value belongs to ESTGAQVQVAGDMLPNSTER ? 0.00119

Request the reported observed amide hydrogen exchange rate constant kobs associated with DYFLFR 0.00105
